# target-under-test: 5α-reductase-Type-2 (Homo sapiens, UniProt P31213)
# Sequence (P31213 1-254): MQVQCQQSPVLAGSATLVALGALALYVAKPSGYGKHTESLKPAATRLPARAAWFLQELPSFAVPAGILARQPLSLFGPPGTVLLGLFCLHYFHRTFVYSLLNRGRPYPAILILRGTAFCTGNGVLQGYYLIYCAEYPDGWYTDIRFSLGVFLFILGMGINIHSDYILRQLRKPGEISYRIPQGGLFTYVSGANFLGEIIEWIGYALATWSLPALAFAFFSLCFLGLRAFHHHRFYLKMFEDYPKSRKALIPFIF
readout-type: pIC50
On this scale, pIC50 is minus log10 of a concentration expressed in M (mol/L).

// query Record request: pIC50 value, item C[C@]12CCC3C4CCC(=O)C=C4CCC3C1CC[C@]2(F)/C=N/O (stereo partly shown)
// result 6.61
